These measurements were taken from patent US8664379B2.

Biological target: wild-type human cardiac sodium channel, hNav1.5 (late sodium current) (Homo sapiens, UniProt Q14524)
Sequence (Q14524 whole entry): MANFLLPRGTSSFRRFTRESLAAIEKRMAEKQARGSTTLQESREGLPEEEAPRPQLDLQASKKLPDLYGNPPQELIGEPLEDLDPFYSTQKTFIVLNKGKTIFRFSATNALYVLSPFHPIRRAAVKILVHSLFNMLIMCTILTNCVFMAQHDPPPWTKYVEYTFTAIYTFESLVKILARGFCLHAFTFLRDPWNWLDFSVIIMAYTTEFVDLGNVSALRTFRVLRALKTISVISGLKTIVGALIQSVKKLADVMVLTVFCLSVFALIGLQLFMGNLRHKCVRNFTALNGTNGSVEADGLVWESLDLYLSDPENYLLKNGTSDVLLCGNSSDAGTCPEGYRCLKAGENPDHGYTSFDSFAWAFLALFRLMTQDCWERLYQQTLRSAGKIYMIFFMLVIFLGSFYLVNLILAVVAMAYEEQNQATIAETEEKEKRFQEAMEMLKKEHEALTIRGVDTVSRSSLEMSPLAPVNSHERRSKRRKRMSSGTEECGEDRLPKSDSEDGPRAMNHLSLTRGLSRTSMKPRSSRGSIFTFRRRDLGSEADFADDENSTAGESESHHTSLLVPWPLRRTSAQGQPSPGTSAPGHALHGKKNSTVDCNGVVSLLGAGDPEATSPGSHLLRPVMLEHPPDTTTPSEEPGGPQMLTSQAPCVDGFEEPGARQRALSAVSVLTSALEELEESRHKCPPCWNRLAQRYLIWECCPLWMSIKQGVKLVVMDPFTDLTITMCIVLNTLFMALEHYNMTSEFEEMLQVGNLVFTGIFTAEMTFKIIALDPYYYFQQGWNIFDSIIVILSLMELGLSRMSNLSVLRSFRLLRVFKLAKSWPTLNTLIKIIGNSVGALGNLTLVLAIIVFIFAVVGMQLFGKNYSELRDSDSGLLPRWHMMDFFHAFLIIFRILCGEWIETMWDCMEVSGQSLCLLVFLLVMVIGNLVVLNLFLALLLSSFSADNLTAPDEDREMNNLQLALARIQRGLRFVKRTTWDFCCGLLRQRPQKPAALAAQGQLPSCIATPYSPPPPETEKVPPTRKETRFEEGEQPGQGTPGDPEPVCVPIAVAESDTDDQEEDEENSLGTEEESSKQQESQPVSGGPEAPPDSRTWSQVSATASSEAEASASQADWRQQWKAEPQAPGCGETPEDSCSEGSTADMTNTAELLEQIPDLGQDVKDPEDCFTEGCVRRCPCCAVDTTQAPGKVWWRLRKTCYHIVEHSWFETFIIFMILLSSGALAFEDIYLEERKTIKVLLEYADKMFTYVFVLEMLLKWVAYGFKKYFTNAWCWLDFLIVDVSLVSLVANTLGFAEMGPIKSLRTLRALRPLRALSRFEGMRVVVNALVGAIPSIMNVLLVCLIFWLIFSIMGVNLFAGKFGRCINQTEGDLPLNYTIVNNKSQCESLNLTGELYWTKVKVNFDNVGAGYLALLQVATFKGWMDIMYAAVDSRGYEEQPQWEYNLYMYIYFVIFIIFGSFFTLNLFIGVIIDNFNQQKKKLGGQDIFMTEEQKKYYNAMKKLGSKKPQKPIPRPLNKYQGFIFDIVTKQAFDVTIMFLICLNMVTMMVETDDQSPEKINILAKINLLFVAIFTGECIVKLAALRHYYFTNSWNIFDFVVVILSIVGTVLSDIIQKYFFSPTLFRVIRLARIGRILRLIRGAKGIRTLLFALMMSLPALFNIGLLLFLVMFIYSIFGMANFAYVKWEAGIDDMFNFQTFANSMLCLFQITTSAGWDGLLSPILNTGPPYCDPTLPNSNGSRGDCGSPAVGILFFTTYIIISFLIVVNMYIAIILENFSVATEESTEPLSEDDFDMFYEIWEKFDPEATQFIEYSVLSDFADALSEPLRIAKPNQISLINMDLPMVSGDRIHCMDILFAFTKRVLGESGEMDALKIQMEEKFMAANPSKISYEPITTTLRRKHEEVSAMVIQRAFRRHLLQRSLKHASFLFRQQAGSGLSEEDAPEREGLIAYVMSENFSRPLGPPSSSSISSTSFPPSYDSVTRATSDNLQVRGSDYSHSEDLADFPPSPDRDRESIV
Test: Late INa screening assay (PatchXpress whole cell patch clamp)
Type: cell-based
Conditions: HEK293, 10 μM test compound; HEK293 cells expressing hNav1.5; late INa generated with 10 μM Tefluthrin (some experiments 50 nM ATX II); read-out: Late INa % blk (10 μM test cmpd)
metricName: inhibition at 10 µM (%)
Answers are plain numbers, in %.

Example molecules with recorded inhibition at 10 µM:
CC(C)(C)OC(=O)CN1C(=O)CCc2cc(-c3ccc(F)cc3)ccc21 : 77
COc1cc2c(cc1-c1ccc(Cl)cc1)CCC(=O)N2CC(=O)O : 17
CC(C)(C)OC(=O)CN1C(=O)CCc2cc(-c3ccc(F)cc3F)ccc21 : 86
O=C(O)CN1C(=O)CCc2cc(-c3cccc(C(F)(F)F)c3)ccc21 : 25
O=C(O)CN1C(=O)CCc2cc(-c3ccc(C(F)(F)F)c(F)c3)ccc21 : 20
COC(=O)c1ccc(CN2C(=O)CCc3cc(-c4ccc(C(F)(F)F)cc4)ccc32)cc1 : 20
O=C1CCc2cc(-c3cccc(F)c3)ccc2N1 : 74
O=C1CCc2cc(-c3ccc(C(F)(F)F)cc3)ccc2N1CCO : 29

Now consider the entry below.
Q. For the molecule CC(C)(C)OC(=O)CN1C(=O)CCc2cc(-c3cccc(Cl)c3)ccc21 , what inhibition at 10 µM is on record?
A. 73

----------
Target: hERG potassium channel (Homo sapiens, UniProt Q12809)
Construct: expressed in transfected cells
Sequence (Q12809 whole entry): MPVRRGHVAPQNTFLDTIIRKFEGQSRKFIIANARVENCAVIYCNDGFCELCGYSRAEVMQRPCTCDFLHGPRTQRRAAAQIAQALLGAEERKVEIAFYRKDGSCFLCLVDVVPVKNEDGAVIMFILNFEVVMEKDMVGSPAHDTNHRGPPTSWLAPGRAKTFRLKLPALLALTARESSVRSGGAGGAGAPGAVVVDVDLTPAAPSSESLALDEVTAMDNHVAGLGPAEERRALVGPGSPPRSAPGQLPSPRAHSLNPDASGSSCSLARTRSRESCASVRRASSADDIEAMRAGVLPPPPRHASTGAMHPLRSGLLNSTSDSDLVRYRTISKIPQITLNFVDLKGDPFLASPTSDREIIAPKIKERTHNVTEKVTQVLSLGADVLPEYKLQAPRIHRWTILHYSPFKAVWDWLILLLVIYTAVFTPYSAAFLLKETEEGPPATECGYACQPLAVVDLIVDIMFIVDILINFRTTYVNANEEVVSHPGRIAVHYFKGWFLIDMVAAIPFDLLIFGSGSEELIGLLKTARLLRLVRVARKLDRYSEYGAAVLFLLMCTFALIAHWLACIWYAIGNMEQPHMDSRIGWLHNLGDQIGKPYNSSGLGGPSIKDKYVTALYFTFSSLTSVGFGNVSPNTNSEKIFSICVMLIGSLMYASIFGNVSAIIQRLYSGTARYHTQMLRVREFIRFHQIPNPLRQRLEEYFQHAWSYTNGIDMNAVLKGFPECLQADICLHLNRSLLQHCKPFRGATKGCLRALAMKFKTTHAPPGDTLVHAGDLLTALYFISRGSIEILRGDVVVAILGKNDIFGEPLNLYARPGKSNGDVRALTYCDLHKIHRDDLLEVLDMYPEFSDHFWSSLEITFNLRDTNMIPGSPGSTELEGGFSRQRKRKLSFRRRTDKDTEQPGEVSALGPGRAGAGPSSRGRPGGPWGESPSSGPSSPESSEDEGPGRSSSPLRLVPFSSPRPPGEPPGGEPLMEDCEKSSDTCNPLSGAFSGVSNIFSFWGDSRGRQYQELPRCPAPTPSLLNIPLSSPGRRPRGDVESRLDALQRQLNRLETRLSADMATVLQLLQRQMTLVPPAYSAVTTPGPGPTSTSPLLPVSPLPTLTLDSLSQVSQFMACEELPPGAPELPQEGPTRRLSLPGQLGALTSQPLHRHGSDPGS
Assay: hERG screening assay (PatchXpress patch clamp)
Format: cell-based
Details: 10 μM test compound; hERG expressed in CHO cells; peak current at -50 mV
Please respond with reported hERG Patch Clamp hERG % blk 10 μm for every item in the list.
Numbers only, in %.

Example entries begin here.
O=C(O)CN1C(=O)CCc2cc(-c3ccc(C(F)(F)F)cc3)ccc21 : 10
O=C(O)CN1C(=O)CCc2cc(-c3ccc(Cl)c(F)c3)ccc21 : 10
O=C1CCc2cc(-c3cccc(F)c3)ccc2N1 : 19

Dear colleague, could you please provide hERG Patch Clamp hERG % blk 10 μm for the compounds listed below?
1. CN1C(=O)CCc2cc(-c3cccc(F)c3)ccc21
2. O=C1CCc2cc(-c3ccccc3)ccc2N1 [Compound 4, 6-phenyl-3,4-dihydroquinolin-2(1H)-one]

A.
1. 36
2. 16

----------
Target: wild-type human cardiac sodium channel, hNav1.5 (late sodium current) (Homo sapiens)
Test: Late INa screening assay (PatchXpress whole cell patch clamp)
Assay type: cell-based
Conditions: 1 μM test compound; HEK293 cells expressing hNav1.5; late INa generated with 10 μM Tefluthrin (some experiments 50 nM ATX II)
metricName: Late INa % blk (1 μM test cmpd) (%)
Give bare numbers, in %.

Record excerpt, results attached:
CC(C)(C)OC(=O)CN1C(=O)CCc2cc(-c3ccc(F)cc3F)ccc21 : 47.9
CC(C)(C)OC(=O)CN1C(=O)CCc2cc(-c3ccc(F)cc3)ccc21 : 38.1

Working through the 2 compounds below one at a time, give Late INa % blk (1 μM test cmpd) for each.
1. CCOC(=O)CN1C(=O)CCc2cc(-c3cccc(OC(F)(F)F)c3)ccc21
2. O=C1CCc2cc(-c3ccc(Cl)c(C(F)(F)F)c3)ccc2N1

A.
1: 44; 2: 40
